Entry source: PubChem BioAssay AID1159580

# test summary: chemical genetic growth profiling, strain panel (AID 1159580);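 also: tested at 20 µM; growth read once vehicle control cultures reached saturation at 30 °C; 1 = growth at the plate median or of vehicle wells; lower values mean less growth of the strain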
# test context: S. cerevisiae deletion strains, growth OD, locus YPR141C, strain kar3, stronger effect = lower value
Out of some 5,500 compounds screened, about 2,000 (36%) were called active. About 18% were inconclusive and are not listed. The list shows a part of the results.
observation type: normalized growth
Reply with just the number.

Study these solved cases before continuing.
Fill in: normalized growth of CCN(CC)CCOC(=O)c1ccc(N)cc1 is ___
0.989

Could you do the same for C=C1CCC2C(CC2(C)C)C(=O)CCC1O (centres undefined) , please?
1.01

Could you do the same for O=C(O)CN(CC(=O)O)Cc1cc2c(-c3ccccc3C(=O)O)c3cc(CN(CC(=O)O)CC(=O)O)c(=O)cc-3oc2cc1O , please?
1.02

Could you do the same for CCC(C)(C)C(=O)O[C@H]1C[C@@H](C)C=C2C=C[C@H](C)[C@H](CC[C@@H]3C[C@@H](O)CC(=O)O3)[C@H]21 , please?
1.02

Could you do the same for CCCCN(CCCC)CCCOC(=O)c1ccc(N)cc1 , please?
0.987

Could you do the same for C=C1C(C)C2C(Cc3ccccc3)NC(=O)C23OC(=O)/C=C/C(=O)CCCC(C)C/C=C/C3C1O (centres undefined) , please?
1.01

Could you do the same for CC(C)[C@@H]1CC[C@@H](C)C[C@H]1O , please?
1.02

Could you do the same for COc1c(OC)c2occc2c2oc(=O)ccc12 , please?
0.985

***
Fill in: normalized growth of O=c1[nH]oc2c1CCNC2 is ___
0.972
